Where do these numbers come from? They come from ChEMBL document CHEMBL1149892.

# Tested on: Cryptococcus neoformans
# experimentalDetails: Antifungal activity against Cryptococcus neoformans ATCC 32264 at 25 uM after 48 hrs relative to amphotericin B
# Type: functional
# testParameters: ATCC 32264, 48 h
Each entry gets Not fulfilled if its inhibition at 25 µM stays under 20%, and Fulfilled if its inhibition at 25 µM is 20% or above.

Completed entries (count: 8):
substance | cat
H-HYKWGKYV-NH2 | Fulfilled
H-HFKWGKFV-NH2 | Not fulfilled
H-HFRWGKFV-NH2 | Not fulfilled
H-HYKWGKFV-NH2 | Fulfilled
H-HFRWGKPV-NH2 | Not fulfilled
H-HYRWGKFV-NH2 | Fulfilled
H-HFRWGKYV-NH2 | Fulfilled
H-HFKWGKYV-NH2 | Fulfilled

As a next step, examine the substance that follows.
Given the entry H-HFRWGRFV-NH2 , answer whether its inhibition at 25 µM meets or surpasses 20%.
Fulfilled
